# test system: human IL-21R expressed on cells (human, UniProt Q9HBE5 20-538)
# Sequence (Q9HBE5 20-538 limits assumed): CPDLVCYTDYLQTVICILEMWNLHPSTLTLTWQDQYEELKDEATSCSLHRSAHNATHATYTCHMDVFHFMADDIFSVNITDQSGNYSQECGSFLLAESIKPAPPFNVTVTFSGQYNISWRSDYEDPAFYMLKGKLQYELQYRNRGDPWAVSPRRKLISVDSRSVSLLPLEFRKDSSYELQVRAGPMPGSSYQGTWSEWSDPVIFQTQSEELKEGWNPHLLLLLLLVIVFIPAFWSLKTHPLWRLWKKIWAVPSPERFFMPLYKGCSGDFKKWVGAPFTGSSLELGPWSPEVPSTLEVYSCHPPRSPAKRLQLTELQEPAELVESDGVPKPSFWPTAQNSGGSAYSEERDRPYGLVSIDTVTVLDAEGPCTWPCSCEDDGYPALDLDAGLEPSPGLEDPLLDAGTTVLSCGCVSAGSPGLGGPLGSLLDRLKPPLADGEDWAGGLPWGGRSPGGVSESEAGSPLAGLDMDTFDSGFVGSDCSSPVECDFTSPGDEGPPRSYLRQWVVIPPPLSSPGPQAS
# procedure summary: cell-based or functional assay
outcome measure: IC50 (nM) in Human IL-21R-BaF3 Neutralization Assay
Output spec: scalar in nM, unitless text.

**Q:** Return value of IC50 (nM) in Human IL-21R-BaF3 Neutralization Assay for input scFv L17 (scFv) scFv: QVQLQESGPGLVKTSETLSLTCAVSGYSISSGYYWGWIRQPPGKGLEWIGSISHTGNTYYNPPLKSRVTISVDTSKNQFSLKLSSVTAADTAVYYCARGGGISRPEYWGKGTLVTVSSGGGGSGGGGSGGGGSALSSELTQDPPVSVALGQTVTLTCQGDSLRTYYASWYQQKSGQAPILLLYGKHKRPSGIPDRFSGSTSGDTASLTITGAQAEDEADYYCSTRSRKGNPHVLFGGGTQLTVL , no commentary.
**A:** 1.6

**Q:** # return recorded IC50 (nM) in Human IL-21R-BaF3 Neutralization Assay for entry scFv L2 (scFv) scFv: QVQLQESGPGLVKTSETLSLTCAVSGYSISSGYYWGWIRQPPGKGLEWIGSISHTGNTYYNPPLKSRVTISVDTSKNQFSLKLSSVTAADTAVYYCARGGGISRPEYWGKGTLVTVSSGGGGSGGGGSGGGGSALSSELTQDPPVSVALGQTVTLTCQGDSLRTYYASWYQQKSGQAPILLLYGKHKRPSGIPDRFSGSTSGDTASLTITGAQAEDEADYYCVARSVVGNPHVLFGGGTQLTVL
**A:** 3.1

**Q:** Please report the measured IC50 (nM) in Human IL-21R-BaF3 Neutralization Assay for scFv L21 (scFv) scFv: QVQLQESGPGLVKTSETLSLTCAVSGYSISSGYYWGWIRQPPGKGLEWIGSISHTGNTYYNPPLKSRVTISVDTSKNQFSLKLSSVTAADTAVYYCARGGGISRPEYWGKGTLVTVSSGGGGSGGGGSGGGGSALSSELTQDPPVSVALGQTVTLTCQGDSLRTYYASWYQQKSGQAPILLLYGKHKRPSGIPDRFSGSTSGDTASLTITGAQAEDEADYYCATRAVRGNPHVLFGGGTQLTVL
**A:** 9.4
